FYI, the data here is from PubChem BioAssay AID1159580.

test: chemical genetic growth profiling, strain panel (AID 1159580);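 note: tested at 20 µM; growth read once vehicle control cultures reached saturation at 30 °C; 1 = growth at the plate median or of vehicle wells; lower values mean less growth of the strain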
stated_conditions: S. cerevisiae deletion strains, growth OD, locus YNL153C, strain GIM3, hits give low values
Out of some 5,500 compounds screened, about 2,000 (36%) were called active. Inconclusive results (about 18%) are left out. This is one part of the list.
Attribute: normalized growth
// no unit string in output, number only

See these solved cases before continuing.
CP(=O)(O)CCCN :: 0.99
O=C(NCCCCO)OCC1c2ccccc2-c2ccccc21 :: 0.983

Request: Record request: normalized growth value, item `O=C(O)c1cc(O)ccc1O`
Response: 1.02

Request: Now consider `CCn1nc(C(=O)O)c(=O)c2cc3c(cc21)OCO3` and answer again.
Response: 1.02

Request: Now consider `c1ccc(-c2ncc3ccccn23)cc1` and answer again.
Response: 0.979

Request: Now consider `CC(C)c1cccc(C(C)C)c1O` and answer again.
Response: 1.01

Request: Now consider `Cc1ccc(NC(=O)CC#N)c(C)c1` and answer again.
Response: 1.01
